System: adenosine diphosphate-induced blood platelet aggregation
Assay: inhibition of adenosine diphosphate-induced blood platelet aggregation in platelet rich plasma of rats
Format: cell-based, rat
Details: relative to PGE1 taken as 1.00; ADP-induced, platelet rich plasma of rats
parameter measured: Platelet aggregation inhibition (E1 = 1)

Field: example entries. Status: answers known.
CCCCC1CCC([C@H](O)/C=C/[C@H]2[C@H](O)CC(=O)[C@@H]2CC(=O)CCCCC(=O)OC)C1 (stereo partly drawn) [F, reference compound]
51.0
CCCCC1CC[C@H]([C@H](O)/C=C/[C@H]2[C@H](O)CC(=O)[C@@H]2CC(=O)CCCCCO)C1 (stereo partly drawn)
0.05
CCCC1CCC([C@H](O)/C=C/[C@H]2[C@H](O)CC(=O)[C@@H]2CC(=O)CCCCC(=O)O)C1 (stereo partly drawn) [D, reference compound]
48.4
CCCC1CCC([C@H](O)/C=C/[C@H]2[C@H](O)CC(=O)[C@@H]2CC(=O)CCCCC(=O)OC)C1 (stereo partly drawn) [E, reference compound]
58.6
CCCC1CCC([C@H](O)/C=C/[C@H]2[C@H](O)CC(=O)[C@@H]2CC(=O)CCCCC(=O)OC)CC1 (stereo partly drawn) [G, reference compound]
19.7

Data request, read-out Platelet aggregation inhibition (E1 = 1), for CCCC1CC[C@H]([C@H](O)/C=C/[C@H]2[C@H](O)CC(=O)[C@@H]2CC(=O)CCCCCO)C1 (stereo partly drawn)
0.05

----------
System: blood pressure
Experiment: hypotensive effect in the allobarbital anesthetized dog
Type: in vivo
Details: relative to PGE1 taken as 1.00; i.v., allobarbital anesthetised dog
Reported Hypotensive effect (E1 = 1) values follow for various compounds
Reply with the value as a number alone.

CCCCC1CC[C@H]([C@H](O)/C=C/[C@H]2[C@H](O)CC(=O)[C@@H]2CC(=O)CCCCCO)C1 (stereo partly shown)
1.2
CCCC1CC[C@H]([C@H](O)/C=C/[C@H]2[C@H](O)CC(=O)[C@@H]2CC(=O)CCCCCO)C1 (stereo partly shown)
0.35
CCCC1CCC([C@H](O)/C=C/[C@H]2[C@H](O)CC(=O)[C@@H]2CC(=O)CCCCC(=O)OC)CC1 (stereo partly shown) [G, reference compound]
6.2
CCCC1CCC([C@H](O)/C=C/[C@H]2[C@H](O)CC(=O)[C@@H]2CC(=O)CCCCC(=O)O)C1 (stereo partly shown) [D, reference compound]
13
O=C(CCCCCO)C[C@H]1C(=O)C[C@@H](O)[C@@H]1/C=C/[C@@H](O)C1CCCC1
0.77

Data request, read-out Hypotensive effect (E1 = 1), for CCCC1CCC([C@H](O)/C=C/[C@H]2[C@H](O)CC(=O)[C@@H]2CC(=O)CCCCC(=O)OC)C1 (stereo partly shown) [E, reference compound]
25.7

And then CCCCC1CCC([C@H](O)/C=C/[C@H]2[C@H](O)CC(=O)[C@@H]2CC(=O)CCCCC(=O)OC)C1 (stereo partly shown) [F, reference compound] , what is it?
12.6

Entry source: patent US4473587A
